Data credit: PubChem BioAssay (NCI)

# System: HS 578T breast
# test: NCI-60 one-dose screen, 48 h (100 = growth as untreated, 0 = no growth, -100 = all killed)
# testParameters: 10 µM unless noted
Compounds without any hit were thinned out: in the full panel of roughly 83,000, 20% have a hit.
Recorded growth by entry
readout: growth (%)

>  <compound>
Clc1cccc(Cl)c1Nc1ccc2nnc(-c3ccncc3)n2n1

>  <quantitativeResult>
103

$$$$
>  <compound>
CCCCCCCCCCCCSC1=CC(=O)C=CC1=O

>  <quantitativeResult>
63.8

$$$$
>  <compound>
Fc1ccccc1Nc1ccc2nnc(-c3ccncc3)n2n1

>  <quantitativeResult>
105

$$$$
>  <compound>
CN(C)c1ccc(/C=C(\C#N)c2cc3ccccc3n2C)cc1

>  <quantitativeResult>
20.9

$$$$
>  <compound>
N#Cc1c(-c2cccc(F)c2)cc(-c2ccc(Br)s2)[nH]c1=O

>  <quantitativeResult>
69

$$$$
>  <compound>
CC(C)(C)[Si](C)(C)OC1[C@@H](CNC(=O)NC(=O)CCl)O[C@@H](n2cnc3c(N)ncnc32)[C@H]1O[Si](C)(C)C(C)(C)C (some centres not stated)

>  <quantitativeResult>
-16.9

$$$$
>  <compound>
Clc1ccc(Nc2ccnc(N3CCN(c4ccnc5cc(Cl)ccc45)CC3)n2)cc1

>  <quantitativeResult>
49.1

$$$$
>  <compound>
Cc1nn(-c2ccccc2)c2nc3nc4c(c(N)c3c(-c3ccc(Cl)cc3)c12)CCCC4

>  <quantitativeResult>
105

$$$$
>  <compound>
OB(O)c1ccccc1

>  <quantitativeResult>
102

$$$$
>  <compound>
CCCCCCCCCCCC(=O)[O][Sn]([CH2]CCC)([CH2]CCC)[CH2]CCC

>  <quantitativeResult>
-20.2

$$$$
>  <compound>
COc1cc2cc(Oc3ccc(NC(=O)Nc4cccc(C(F)(F)F)c4)cc3)c(C)nc2cc1OCCN1CCCCC1

>  <quantitativeResult>
-53.6

$$$$
>  <compound>
c1ccc(-c2nc(N3CCOCC3)c3c4c(sc3n2)CCCCCC4)nc1

>  <quantitativeResult>
53.4

$$$$
>  <compound>
C=CC[P+](c1ccccc1)(c1ccccc1)c1ccccc1

>  <quantitativeResult>
79.4

$$$$
>  <compound>
COc1ccc(-c2nc3sccn3c2/C=C/C(=O)c2cc(OC)c(OC)c(OC)c2)cc1OC

>  <quantitativeResult>
3.84

$$$$
>  <compound>
COC1(OC)C2(Cl)C=C(c3ccccc3)C1(Cl)C(Cl)=C2Cl (configuration not stated)

>  <quantitativeResult>
116

$$$$
>  <compound>
Cc1ccc(S(=O)(=O)N2CCc3ccc(O)c4c3C2CCc2ccccc2-4)cc1 (configuration not stated)

>  <quantitativeResult>
106

$$$$
>  <compound>
Cc1nc(NN)c([N+](=O)[O-])c(NN)n1

>  <quantitativeResult>
139

$$$$
>  <compound>
CN1CCc2c(Sc3ccc(C(=O)NO)cc3)c3ccccc3n2C1

>  <quantitativeResult>
60.2

$$$$
>  <compound>
O/N=C/c1cccs1

>  <quantitativeResult>
116

$$$$
>  <compound>
COc1ccc(OC2=CC(=O)c3ccc(C)nc3C2=O)cc1

>  <quantitativeResult>
83.2

$$$$
>  <compound>
FCOC(C(F)(F)F)C(F)(F)F

>  <quantitativeResult>
107

$$$$
>  <compound>
CC(=O)Nc1ccc(S(=O)(=O)N/N=C\c2ccc(Cl)c(Cl)c2)cc1

>  <quantitativeResult>
103

$$$$
>  <compound>
COC(=O)c1c2c(c(C)[n+]([O-])c1C)C(=O)C=C(NCc1ccc(F)cc1)C2=O

>  <quantitativeResult>
-16.6

$$$$
>  <compound>
Fc1c[c-]c(-c2ccccn2)c(F)c1.Fc1c[c-]c(-c2ccccn2)c(F)c1.[Cl][Pt+].[Cl][Pt+].c1ccc([PH+](C[PH+](c2ccccc2)c2ccccc2)c2ccccc2)cc1

>  <quantitativeResult>
26.1

$$$$
>  <compound>
CCOC(=O)c1c(-c2cc(OC)c(OC)c(OC)c2)csc1N

>  <quantitativeResult>
104

$$$$
>  <compound>
CCC(=O)Nc1nnc(Cc2ccc(OC)c(OC)c2)s1

>  <quantitativeResult>
-13

$$$$
>  <compound>
COc1cccc(OC(=O)c2ccccc2)c1OC(=O)c1ccccc1

>  <quantitativeResult>
86.9

$$$$
>  <compound>
Cc1nc(-c2ccccc2)cc2c(O)c(C(=O)N/N=C/Cc3ccccc3)[nH]c(=O)c12

>  <quantitativeResult>
112

$$$$
>  <compound>
COc1ccc(-c2c3c(N)c4c(nc3nc3c2c(C)nn3-c2ccccc2)CCCCC4)cc1

>  <quantitativeResult>
101

$$$$
>  <compound>
O=C1c2cc(S(=O)(=O)O)ccc2C(=O)c2c1cccc2[N+](=O)[O-]

>  <quantitativeResult>
106

$$$$
>  <compound>
Brc1ccc(Br)nn1

>  <quantitativeResult>
-0.414

$$$$
>  <compound>
Brc1ccccc1Nc1ccc2nnc(-c3ccncc3)n2n1

>  <quantitativeResult>
109

$$$$
>  <compound>
COC(=O)[C@@]12CC[C@@H](C)[C@]3(C[C@@H](c4ccoc4)OC3=O)[C@H]1CC[C@@H]1O[C@@]12C

>  <quantitativeResult>
98.7

$$$$
>  <compound>
O=C1Nc2ccc(Cl)cc2/C1=N/N=C(c1ccccc1)c1ccccc1

>  <quantitativeResult>
97.3

$$$$
>  <compound>
C=C(C)COC(=O)c1ccccc1C(=O)OCC1(C)CO1 (configuration not stated)

>  <quantitativeResult>
104

$$$$
>  <compound>
Cn1c(=O)c(S(=O)(=O)c2ccccc2)cc2ccc3c(cnn3-c3ccc(Cl)cc3)c21

>  <quantitativeResult>
69.3

$$$$
>  <compound>
Cc1ccc2c(N/N=C\c3ccco3)cc(C)nc2n1

>  <quantitativeResult>
86.3

$$$$
>  <compound>
COc1ccc(-c2nc3sc(C)cn3c2/C=C/C(=O)c2cc(OC)c(OC)c(OC)c2)cc1

>  <quantitativeResult>
37.3

$$$$
>  <compound>
O=C(N/N=C/c1ccc(OC(F)F)c(OC2CCCC2)c1)c1cnn2c1NC(c1ccccc1)C2 (configuration not stated)

>  <quantitativeResult>
69.2

$$$$
>  <compound>
COC(=O)c1cc(-c2ccc(C)cc2)n(C(=O)CSc2nc3sc(C(N)=O)c(C)c3c(=O)n2Cc2ccccc2)n1

>  <quantitativeResult>
107

$$$$
>  <compound>
Cc1nc2nc(C(F)(F)F)[nH]c2nc1C

>  <quantitativeResult>
119

$$$$
>  <compound>
O=C1c2c(c3c4cc(Br)ccc4[nH]c3c3ccc4ccccc4c23)C(=O)N1O

>  <quantitativeResult>
117

$$$$
